Experiment: Clearance in beagle dog at 2 mg/kg, iv administered as single bolus dose
Format: ADME, organism-based, Canis lupus familiaris
Parameters: dose 2 mg/kg, route intravenous
Conditions: in vivo
MEASURE NAME: clearance
Please answer in the form of a number followed by its unit of measurement.

Input line: Annotate the compound CN(C)C(=O)c1ccc(-c2ccc3c(c2)CCN(CCN2CCCC2)C3=O)cc1.Cl with its measured clearance.
Output line: 23 mL/min/kg

###

Molecular target: Sodium-dependent serotonin transporter (Homo sapiens, UniProt P31645)
Sequence (P31645 whole entry): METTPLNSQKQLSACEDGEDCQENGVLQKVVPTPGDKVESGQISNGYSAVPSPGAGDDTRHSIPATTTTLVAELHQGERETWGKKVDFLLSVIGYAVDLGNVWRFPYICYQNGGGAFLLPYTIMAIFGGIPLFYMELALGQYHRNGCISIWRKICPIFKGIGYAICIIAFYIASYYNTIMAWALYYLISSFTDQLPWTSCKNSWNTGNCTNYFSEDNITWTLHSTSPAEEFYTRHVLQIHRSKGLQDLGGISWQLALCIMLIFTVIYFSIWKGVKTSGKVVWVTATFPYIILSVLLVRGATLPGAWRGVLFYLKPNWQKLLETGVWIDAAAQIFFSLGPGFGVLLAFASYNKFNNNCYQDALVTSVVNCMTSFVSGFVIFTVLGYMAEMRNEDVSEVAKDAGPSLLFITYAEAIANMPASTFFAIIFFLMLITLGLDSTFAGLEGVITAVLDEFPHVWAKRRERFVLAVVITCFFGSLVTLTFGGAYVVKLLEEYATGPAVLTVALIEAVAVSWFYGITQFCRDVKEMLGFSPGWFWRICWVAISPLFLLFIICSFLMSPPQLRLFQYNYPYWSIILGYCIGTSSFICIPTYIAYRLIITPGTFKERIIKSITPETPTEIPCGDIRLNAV
compounds and their reported Ki
Could you give me the number in nM? Just the number is fine.

SUBSTANCE SMILES	Ki, nM
C[C@@H]1CCCN1CCN1CCc2cc(-c3ccc(C(=O)N4CCCC4)cc3)ccc2C1=O	810

Input line: Enter Ki (test system Sodium-dependent serotonin transporter (Homo sapiens, UniProt P31645)) for C[C@H]1CCCN1C(=O)c1ccc(-c2ccc3c(c2)CCN(CCN2CCCC2)C3=O)cc1
Output line: 390

Input line: Enter Ki (test system Sodium-dependent serotonin transporter (Homo sapiens, UniProt P31645)) for C[C@@H]1CCCN1C(=O)c1ccc(-c2ccc3c(c2)CCN(CCN2CCCC2)C3=O)cc1
Output line: 320
